Quick reference for inhibition among some molecules
TARGET: 5-hydroxytryptamine receptor 1A (Homo sapiens)
PROTOCOL_NOTES: Displacement of [3H]-8-OH-DPAT from human 5-HT1A receptor expressed in HEK cell membrane at 10 uM incubated for 120 mins by microplate beta scintillation counting analysis
Format: cell membranes
Response body: numeric value in %, unit text excluded.

Example entries begin here.
# MOLECULE, ASSAY_READOUT, UNIT_STRING, RESULT_VALUE
data = [
    ("O=C1CC2CCc3ccsc3C2=NN1CCCCCCCN1CCN(Cc2cccc3c2ccn3S(=O)(=O)c2ccccc2)CC1 (stereo not given)", "inhibition", "%", 33),
    ("CN(C)CCCCN1N=C2c3sccc3CCC2CC1=O (stereo not given)", "inhibition", "%", 37),
    ("O=C1CC2CCc3ccsc3C2=NN1CCCCCN1CCN(Cc2cccc3c2ccn3S(=O)(=O)c2ccccc2)CC1 (stereo not given)", "inhibition", "%", 35),
    ("O=C1CC2CCc3ccsc3C2=NN1CCCCCCN1CCN(Cc2cccc3c2ccn3S(=O)(=O)c2ccccc2)CC1 (stereo not given)", "inhibition", "%", 23),
]

Shifting focus to the molecule that follows.
Data request: Give the value of inhibition reported for the following: O=C1CC2CCc3ccsc3C2=NN1CN1CCN(Cc2ccccc2)CC1 (stereo not given)
Data returned: 24

====

TARGET: 5-hydroxytryptamine receptor 4 (Homo sapiens, UniProt Q13639)
Sequence (Q13639 whole entry): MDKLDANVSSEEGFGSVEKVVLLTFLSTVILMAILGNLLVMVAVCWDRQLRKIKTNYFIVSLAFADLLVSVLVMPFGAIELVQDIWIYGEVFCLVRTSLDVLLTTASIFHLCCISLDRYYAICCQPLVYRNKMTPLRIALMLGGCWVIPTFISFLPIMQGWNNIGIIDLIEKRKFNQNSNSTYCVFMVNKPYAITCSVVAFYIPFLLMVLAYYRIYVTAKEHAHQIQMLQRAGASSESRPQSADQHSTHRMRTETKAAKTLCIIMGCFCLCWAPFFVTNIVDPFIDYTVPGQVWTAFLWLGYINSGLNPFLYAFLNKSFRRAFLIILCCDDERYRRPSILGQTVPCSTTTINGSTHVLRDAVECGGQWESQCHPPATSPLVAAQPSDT
PROTOCOL_NOTES: Antagonist activity at 5-HT4 receptor in human HeLa cells assessed as inhibition of intracellular calcium mobilization at 10 uM incubated for 2 hrs by FLIPR assay
Format: cell-based
Activity calls are given as the source filed them. No cut-off for these calls is given here.
ASSAY_READOUT: inhibition

Example entries begin here.
# COMPOUND, inhibition
rows = [
    ("O=C1CC2Cc3ccsc3C2=NN1CCCCCN1CCN(Cc2cccc3c2ccn3S(=O)(=O)c2ccccc2)CC1 (stereo not drawn)", "inactive"),
    ("O=C1CC2CCc3ccsc3C2=NN1CCCCCN1CCN(Cc2cccc3c2ccn3S(=O)(=O)c2ccccc2)CC1 (stereo not drawn)", "inactive"),
    ("O=C1CC2CCc3ccsc3C2=NN1CCCCCCN1CCN(Cc2cccc3c2ccn3S(=O)(=O)c2ccccc2)CC1 (stereo not drawn)", "12%"),
    ("O=C1CC2CCc3ccsc3C2=NN1CCCCCCCN1CCN(Cc2cccc3c2ccn3S(=O)(=O)c2ccccc2)CC1 (stereo not drawn)", "16%"),
    ("O=C1CC2Cc3ccsc3C2=NN1CCCCCCN1CCN(Cc2cccc3c2ccn3S(=O)(=O)c2ccccc2)CC1 (stereo not drawn)", "inactive"),
]

Data request: Give the value of inhibition reported for the following: O=C1CC2Cc3ccsc3C2=NN1CCCCCCCN1CCN(Cc2cccc3c2ccn3S(=O)(=O)c2ccccc2)CC1 (stereo not drawn)
Data returned: inactive

Data request: Give the value of inhibition reported for the following: O=C1CC2CCc3ccsc3C2=NN1CCCCN1CCN(Cc2cccc3c2ccn3S(=O)(=O)c2ccccc2)CC1 (stereo not drawn)
Data returned: inactive

Data request: Give the value of inhibition reported for the following: O=C1CC2Cc3ccsc3C2=NN1CCCCN1CCN(Cc2cccc3c2ccn3S(=O)(=O)c2ccccc2)CC1 (stereo not drawn)
Data returned: 26%

====

The following are reported IC50 results, target or system Cholinesterase (Homo sapiens, UniProt P06276).
Response body: numeric value in µM, unit text excluded.

# MOLECULE, IC50 (µM)
measured = [
    ("O=C1CC2CCc3ccsc3C2=NN1Cc1ccc(CN2CCN(Cc3ccccc3)CC2)cc1 (stereo not given)", 9.7),
    ("O=C1CC2CCc3ccsc3C2=NN1CCN1CCN(Cc2ccccc2)CC1 (stereo not given)", 5.11),
    ("O=C1CC2CCCc3ccsc3C2=NN1CCCCN1CCN(Cc2ccccc2)CC1 (stereo not given)", 4.13),
    ("O=C1CC2CCc3sccc3C2=NN1CCCCN1CCN(Cc2ccccc2)CC1 (stereo not given)", 3.3),
]

Shifting focus to the molecule that follows.
Data request: Give the value of IC50 reported for the following: O=C1CC2CCc3ccsc3C2=NN1CN1CCN(Cc2ccccc2)CC1 (stereo not given)
Data returned: 5.58

====

TARGET: Acetylcholinesterase (Homo sapiens, UniProt P22303)
Sequence (P22303 whole entry): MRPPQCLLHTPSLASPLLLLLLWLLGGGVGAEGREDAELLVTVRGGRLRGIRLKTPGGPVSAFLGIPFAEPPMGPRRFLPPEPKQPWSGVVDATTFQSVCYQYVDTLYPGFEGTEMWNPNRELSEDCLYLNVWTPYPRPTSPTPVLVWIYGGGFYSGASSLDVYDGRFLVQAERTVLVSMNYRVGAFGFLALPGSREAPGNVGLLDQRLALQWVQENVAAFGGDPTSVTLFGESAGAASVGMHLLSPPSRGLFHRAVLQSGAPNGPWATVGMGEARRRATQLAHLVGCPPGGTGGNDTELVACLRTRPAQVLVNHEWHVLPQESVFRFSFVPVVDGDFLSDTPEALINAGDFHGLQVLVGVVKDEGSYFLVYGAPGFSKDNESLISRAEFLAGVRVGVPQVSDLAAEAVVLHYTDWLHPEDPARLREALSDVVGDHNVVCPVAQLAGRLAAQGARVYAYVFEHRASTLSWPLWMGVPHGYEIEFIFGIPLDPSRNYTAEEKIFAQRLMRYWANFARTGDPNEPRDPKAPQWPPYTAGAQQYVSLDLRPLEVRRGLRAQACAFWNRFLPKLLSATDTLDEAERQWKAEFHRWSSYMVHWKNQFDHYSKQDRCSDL
Quick reference for pIC50 among some compounds
In simple prose, pIC50 is minus the logarithm base ten of a concentration in moles per litre.

# COMPOUND, ASSAY_READOUT, RESULT_VALUE
data = [
    ("O=C1CC2Cc3ccsc3C2=NN1CCCCCCN1CCN(Cc2cccc3c2ccn3S(=O)(=O)c2ccccc2)CC1 (stereo not given)", "pIC50", 5.04),
    ("O=C1CC2CCc3ccsc3C2=NN1CCCCN1CCCCC1 (stereo not given)", "pIC50", 5.68),
    ("CCN(CC)CCCCN1N=C2c3sccc3CCC2CC1=O (stereo not given)", "pIC50", 5.53),
    ("O=C1CC2CCc3ccsc3C2=NN1CCCCCCCN1CCN(Cc2cccc3c2ccn3S(=O)(=O)c2ccccc2)CC1 (stereo not given)", "pIC50", 5.34),
    ("O=C1CC2CCCc3ccsc3C2=NN1CCCCN1CCN(Cc2ccccc2)CC1 (stereo not given)", "pIC50", 5.91),
    ("O=C1CC2CCc3sccc3C2=NN1CCCCN1CCN(Cc2ccccc2)CC1 (stereo not given)", "pIC50", 6.07),
    ("O=C1CC2CCc3ccsc3C2=NN1CCCCN1CCCC1 (stereo not given)", "pIC50", 5.94),
    ("O=C1CC2CCc3ccsc3C2=NN1CCCCCN1CCN(Cc2cccc3c2ccn3S(=O)(=O)c2ccccc2)CC1 (stereo not given)", "pIC50", 5.35),
    ("O=C1CC2CCc3ccsc3C2=NN1CN1CCN(Cc2ccccc2)CC1 (stereo not given)", "pIC50", 4.87),
]

Shifting focus to the compound that follows.
Data request: Give pIC50 for this entry on Acetylcholinesterase (Homo sapiens, UniProt P22303): CN(C)CCCCN1N=C2c3sccc3CCC2CC1=O (stereo not given)
Data returned: 5.20

====

TARGET: Acetylcholinesterase (Homo sapiens)
ASSAY_READOUT: Ki

Data request: Give the value of Ki reported for the following: O=C1CC2CCc3ccsc3C2=NN1CCN1CCN(Cc2ccccc2)CC1 (stereo unspecified)
Data returned: 123 nM

====

TARGET: Cholinesterase (Homo sapiens, UniProt P06276)
Sequence (P06276 whole entry): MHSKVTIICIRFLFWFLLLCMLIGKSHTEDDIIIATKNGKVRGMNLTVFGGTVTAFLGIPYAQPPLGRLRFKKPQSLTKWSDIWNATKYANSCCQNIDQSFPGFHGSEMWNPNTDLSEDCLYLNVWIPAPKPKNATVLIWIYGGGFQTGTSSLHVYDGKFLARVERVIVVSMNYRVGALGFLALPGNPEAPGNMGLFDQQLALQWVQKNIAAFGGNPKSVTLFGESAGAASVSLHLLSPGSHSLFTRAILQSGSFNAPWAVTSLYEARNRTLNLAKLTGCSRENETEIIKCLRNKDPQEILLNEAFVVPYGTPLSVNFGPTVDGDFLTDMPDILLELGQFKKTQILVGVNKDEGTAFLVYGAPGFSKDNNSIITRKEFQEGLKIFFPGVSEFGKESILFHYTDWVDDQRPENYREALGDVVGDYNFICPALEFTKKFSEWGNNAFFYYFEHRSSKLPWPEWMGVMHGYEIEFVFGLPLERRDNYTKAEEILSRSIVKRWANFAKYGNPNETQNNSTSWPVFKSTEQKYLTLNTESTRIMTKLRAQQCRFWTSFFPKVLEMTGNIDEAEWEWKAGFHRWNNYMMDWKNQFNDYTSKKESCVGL
PROTOCOL_NOTES: Inhibition of human BChE using butyrylthiocholine iodide as substrate at 10 uM preincubated with enzyme for 20 mins followed by substrate addition and measured for 5 mins by Ellman's spectrophotometric method
CONDITION_SUMMARY: time 25.0 min
Activity calls are given as the source filed them. No cut-off for these calls is given here.
ASSAY_READOUT: inhibition

Example entries begin here.
# COMPOUND, inhibition
data = [
    ("CCN(CC)CCCCN1N=C2c3sccc3CCC2CC1=O (stereo unspecified)", "inactive"),
    ("O=C1CC2CCc3ccsc3C2=NN1CCCCN1CCCC1 (stereo unspecified)", "14%"),
    ("CN(C)CCCCN1N=C2c3sccc3CCC2CC1=O (stereo unspecified)", "inactive"),
    ("O=C1CC2CCc3ccsc3C2=NN1CCCCN1CCCCC1 (stereo unspecified)", "9%"),
    ("O=C1CC2Cc3ccsc3C2=NN1CCCCN1CCN(Cc2ccccc2)CC1 (stereo unspecified)", "11%"),
]

Data request: Give the value of inhibition reported for the following: O=C1CC2CCc3ccsc3C2=NN1CCCCN1CCN(Cc2ccccc2)CC1 (stereo unspecified)
Data returned: 45%

====

The following are reported pIC50 results, target or system Acetylcholinesterase (Homo sapiens).
In simple prose, pIC50 is minus the logarithm base ten of a concentration in moles per litre.

Example entries begin here.
# COMPOUND, pIC50
rows = [
    ("O=C1CC2CCc3ccsc3C2=NN1CCCCN1CCN(Cc2ccccc2)CC1 (centres undefined)", 6.12),
    ("O=C1CC2CCc3ccsc3C2=NN1CCCCCCN1CCN(Cc2cccc3c2ccn3S(=O)(=O)c2ccccc2)CC1 (centres undefined)", 5.01),
    ("O=C1CC2Cc3ccsc3C2=NN1CCCCCCCN1CCN(Cc2cccc3c2ccn3S(=O)(=O)c2ccccc2)CC1 (centres undefined)", 5.14),
    ("O=C1CC2CCc3ccsc3C2=NN1CCN1CCN(Cc2ccccc2)CC1 (centres undefined)", 6.77),
    ("O=C1CC2CCc3ccsc3C2=NN1Cc1ccc(CN2CCN(Cc3ccccc3)CC2)cc1 (centres undefined)", 5.44),
    ("O=C1CC2Cc3ccsc3C2=NN1CCCCCN1CCN(Cc2cccc3c2ccn3S(=O)(=O)c2ccccc2)CC1 (centres undefined)", 5.16),
    ("O=C1CC2CCc3ccsc3C2=NN1CCCCN1CCN(Cc2cccc3c2ccn3S(=O)(=O)c2ccccc2)CC1 (centres undefined)", 5.12),
    ("O=C1CC2Cc3ccsc3C2=NN1CCCCN1CCN(Cc2ccccc2)CC1 (centres undefined)", 6.27),
]

Shifting focus to the compound that follows.
Data request: Give pIC50 for this entry on Acetylcholinesterase (Homo sapiens): O=C1CC2Cc3ccsc3C2=NN1CCCCN1CCN(Cc2cccc3c2ccn3S(=O)(=O)c2ccccc2)CC1 (centres undefined)
Data returned: 5.45
